Answer each item with its documented cAMP EC50 (1.0% HSA).
Biological target: T1, human GIP receptor (human, UniProt P48546 22-466)
T1 sequence (looked up): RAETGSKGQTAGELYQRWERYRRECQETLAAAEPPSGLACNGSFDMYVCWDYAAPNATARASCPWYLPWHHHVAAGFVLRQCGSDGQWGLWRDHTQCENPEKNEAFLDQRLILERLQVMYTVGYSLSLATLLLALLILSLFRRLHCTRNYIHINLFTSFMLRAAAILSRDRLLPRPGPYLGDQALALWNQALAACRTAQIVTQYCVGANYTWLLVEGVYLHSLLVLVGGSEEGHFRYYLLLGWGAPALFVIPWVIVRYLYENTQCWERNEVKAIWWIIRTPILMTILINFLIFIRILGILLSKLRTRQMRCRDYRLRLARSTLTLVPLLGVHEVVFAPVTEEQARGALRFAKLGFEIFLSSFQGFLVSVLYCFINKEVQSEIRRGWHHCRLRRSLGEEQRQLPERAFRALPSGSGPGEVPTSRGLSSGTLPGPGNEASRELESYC
Assay: cell-based or functional assay
*1 amine or outer side, *2 acyl side, *3 side chain or, on linkers, in order; H or OH if unused. Where no end group is shown, it is not given here. Side-chain parts run from the residue outwards. [ ]: non-standard residue; d: D form. The star is where a group is joined. Undecanoyl(11-OPh(4-COOH)) = O=C(O)c1ccc(OCCCCCCCCCCC(=O)*)cc1; αMePhe(2-F) = C[C@](N)(Cc1ccccc1F)C(=O)O; γGlu = O=C(O)[C@H](CCC(=O)[*:2])N[*:1]; C14 diacid = O=C(O)CCCCCCCCCCCCC(=O)*; αMeY = C[C@](N)(Cc1ccc(O)cc1)C(=O)O; αMeL = CC(C)C[C@](C)(N)C(=O)O; Orn = NCCC[C@H](N)C(=O)O; AEEA = NCCOCCOCC(=O)O; Aib = CC(C)(N)C(=O)O
Give bare numbers, in nM.

Known results for binders:
binder	readoutUnit	number
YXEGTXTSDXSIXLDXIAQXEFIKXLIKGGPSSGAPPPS (Y-Aib-EGT-αMeF(2F)-TSD-4Pal-SI-αMeL-LD-Orn-IAQ-Aib-EFIK(2-[2-(2-Amino-ethoxy)-ethoxy]-acetyl)2-(γ-Glu)-(11-(4-carboxyphenoxy)undecanoyl)-αMeY-LIK((2-[2-(2-Amino-ethoxy)-ethoxy]-acetyl)2-(γ-Glu)-(11-(4-carboxyphenoxy)undecanoyl)GGPSSGAPPPS-NH2)) [Example 286]	nM	2.18
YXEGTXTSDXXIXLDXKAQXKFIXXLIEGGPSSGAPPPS (Y-Aib-EGT-αMeF(2F)-TSD-4Pal-Aib-I-αMeL-LD-Orn-K((2-[2-(2-Amino-ethoxy)-ethoxy]-acetyl)-(γ-Glu)-CO-(CH2)12-CO2H)AQ-Aib-K((2-[2-(2-Amino-ethoxy)-ethoxy]-acetyl)-(γ-Glu)-CO-(CH2)12-CO2H)FI-(D-Glu)-αMeY-LIEGGPSSGAPPPS-NH2) [Example 336]	nM	2.92
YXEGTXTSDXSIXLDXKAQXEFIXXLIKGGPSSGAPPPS (Y-Aib-EGT-αMeF(2F)-TSD-2Nal-SI-αMeL-LD-Orn-K((2-[2-(2-Amino-ethoxy)-ethoxy]-acetyl)2-(γ-Glu)-(10-(4-carboxyphenoxy)decanoyl))AQ-Aib-EFI-(D-Glu)-αMeY-LIK((2-[2-(2-Amino-ethoxy)-ethoxy]-acetyl)2-(γ-Glu)-(10-(4-carboxyphenoxy)decanoyl))GGPSSGAPPPS-NH2) [Example 282]	nM	1.44
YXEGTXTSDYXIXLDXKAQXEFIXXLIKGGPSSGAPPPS (Y-Aib-EGT-αMeF(2F)-TSDY-Aib-I-αMeL-LD-Orn-K((2-[2-(2-Amino-ethoxy)-ethoxy]-acetyl)2-(γ-Glu)-CO-(CH2)10-CH3)AQ-Aib-EFI-(D-Glu)-αMeY-LIK((2-[2-(2-Amino-ethoxy)-ethoxy]-acetyl)2-(γ-Glu)-CO-(CH2)10-CH3)GGPSSGAPPPS-NH2) [Example 301]	nM	0.919
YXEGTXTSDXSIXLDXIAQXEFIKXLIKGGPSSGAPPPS (Y-Aib-EGT-αMeF(2F)-TSD-OMeY-SI-αMeL-LD-Orn-IAQ-Aib-EFIK((2-[2-(2-Amino-ethoxy)-ethoxy]-acetyl)2-(γ-Glu)-(10-(4-carboxyphenoxy)decanoyl))-αMeY-LIK((2-[2-(2-Amino-ethoxy)-ethoxy]-acetyl)2-(γ-Glu)-(10-(4-carboxyphenoxy)decanoyl))GGPSSGAPPPS-NH2) [Example 279]	nM	3.21

Please go through the list and note cAMP EC50 (1.0% HSA) for each binder.
1. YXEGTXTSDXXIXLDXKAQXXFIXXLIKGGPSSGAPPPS (Y-Aib-EGT-αMeF(2F)-TSD-4Pal-Aib-I-αMeL-LD-Orn-K((2-[2-(2-Amino-ethoxy)-ethoxy]-acetyl)2-(α-Glu)-(10-(4-carboxyphenoxy)decanoyl))AQ-Aib-Om-FI-(D-Glu)-αMeY-LIK((2-[2-(2-Amino-ethoxy)-ethoxy]-acetyl)2-(γ-Glu)-(10-(4-carboxyphenoxy)decanoyl))GGPSSGAPPPS-NH2) [Example 351]
2. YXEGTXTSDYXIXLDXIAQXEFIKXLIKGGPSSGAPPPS (Y-Aib-EGT-αMeF(2F)-TSDY-Aib-I-αMeL-LD-Orn-IAQ-Aib-EFIK(2-[2-(2-Amino-ethoxy)-ethoxy]-acetyl)2-(γ-Glu)-(11-(4-carboxyphenoxy)undecanoyl)-αMeY-LIK((2-[2-(2-Amino-ethoxy)-ethoxy]-acetyl)2-(γ-Glu)-(11-(4-carboxyphenoxy)undecanoyl)GGPSSGAPPPS-NH2)) [Example 312]
3. YXEGTXTSDYXIXLDXKAQXXFIXXLIKGGPSSGAPPPS (Y-Aib-EGT-αMeF(2F)-TSDY-Aib-I-αMeL-LD-Orn-K((2-[2-(2-Amino-ethoxy)-ethoxy]-acetyl)2-(γ-Glu)-(10-(4-carboxyphenoxy)decanoyl))AQ-Aib-Om-FI-(D-Glu)-αMeY-LIK((2-[2-(2-Amino-ethoxy)-ethoxy]-acetyl)2-(γ-Glu)-(10-(4-carboxyphenoxy)decanoyl))GGPSSGAPPPS-NH2) [Example 352]

-- reply
0.722
4.48
0.277

Please look at the items below and tell me cAMP EC50 (1.0% HSA) for each one, in order.
1. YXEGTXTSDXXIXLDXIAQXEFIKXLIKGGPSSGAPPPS (Y-Aib-EGT-αMeF(2F)-TSD-4Pal-Aib-I-αMeL-LD-Orn-IAQ-Aib-EFIK((2-[2-(2-Amino-ethoxy)-ethoxy]-acetyl)3-(γ-Glu)-CO-(CH2)12-CO2H)-αMeY-LIK((2-[2-(2-Amino-ethoxy)-ethoxy]-acetyl)3-(γ-Glu)-CO-(CH2)12-CO2H)GGPSSGAPPPS-NH2) [Example 342]
2. Y[Aib]EGT[αMePhe(2-F)]TSDV[Aib]I[αMeL]LD[Orn]IAQ[Aib]EFIK([AEEA-AEEA-γGlu-Undecanoyl(11-OPh(4-COOH))])[αMeY]LIK([AEEA-AEEA-γGlu-Undecanoyl(11-OPh(4-COOH))])GGPSSGAPPPS-NH2 [Example 313]
3. Y[Aib]EGT[αMePhe(2-F)]TSDV[Aib]I[αMeL]LD[Orn]IAQ[Aib]EFIK([AEEA-AEEA-γGlu-C14 diacid])[αMeY]LIK([AEEA-AEEA-γGlu-C14 diacid])GGPSSGAPPPS-NH2 [Example 304]
4. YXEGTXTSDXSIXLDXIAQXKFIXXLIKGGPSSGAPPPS (Y-Aib-EGT-αMeF(2F)-TSD-4Pal-SI-αMeL-LD-Orn-IAQ-Aib-K((2-[2-(2-Amino-ethoxy)-ethoxy]-acetyl)2-CO-(CH2)12-CO2H)Fl-(D-Glu)-αMeY-LIK((2-[2-(2-Amino-ethoxy)-ethoxy]-acetyl)2-CO-(CH2)12-CO2H)GGPSSGAPPPS-NH2 …) [Example 222]
5. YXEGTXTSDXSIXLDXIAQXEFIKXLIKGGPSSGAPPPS (Y-Aib-EGT-αMeF(2F)-TSD-OMeY-SI-αMeL-LD-Orn-IAQ-Aib-EFIK((2-[2-(2-Amino-ethoxy)-ethoxy]-acetyl)2-(γ-Glu)-CO-(CH2)12-CO2H)-αMeY-LIK((2-[2-(2-Amino-ethoxy)-ethoxy]-acetyl)2-(γ-Glu)-CO-(CH2)12-CO2H)GGPSSGAPPPS-NH2) [Example 262]
6. YXEGTXTSDXSIXLDXKAQXKFIXXLIXGGPSSGAPPPS (Y-Aib-EGT-αMeF(2F)-TSD-4Pal-SI-αMeL-LD-Orn-K((2-[2-(2-Amino-ethoxy)-ethoxy]-acetyl)2-(γ-Glu)-CO-(CH2)10-CH3)AQ-Aib-K((2-[2-(2-Amino-ethoxy)-ethoxy]-acetyl)2-(γ-Glu)-CO-(CH2)10-CH3)FI-(D-Glu)-αMeY-LI-Orn-GGPSSGAPPPS-NH2) [Example 298]
7. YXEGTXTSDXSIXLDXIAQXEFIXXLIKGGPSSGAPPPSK (Y-Aib-EGT-αMeF(2F)-TSD-4Pal-SI-αMeL-LD-Orn-IAQ-Aib-EFI-(D-Glu)-αMeY-LIK((2-[2-(2-Amino-ethoxy)-ethoxy]-acetyl)2-CO-(CH2)12-CO2H)GGPSSGAPPPSK((2-[2-(2-Amino-ethoxy)-ethoxy]-acetyl)2-CO-(CH2)12-CO2H)-NH2) [Example 223]

-- reply
1.04
21.9
4.83
2.1
8.15
0.237
7.84
